PROTOCOL DESCRIPTION: Phase 1 SRD/multiple-rising dose (MRD, Part 2) plasma PK in healthy subjects
Format: in vivo, human
DETAILS: both sexes, human, plasma, oral, 0.3 mg, 0.3 mg QD cohort, Study Day 1; mean; read-out: AUC24
QUANTITY KIND: AUC (ng·h/mL)

[[record]]
compound = "CC1=CN2CCS(=O)(=O)N=C2C(c2ccc(OC3CCCCC3)cc2)=N1 [COMPOUND A]"
quantity_kind = "AUC"
test_result = 48


###

PROTOCOL DESCRIPTION: Phase 1 single-rising dose (SRD, Part 1) plasma PK in healthy subjects
Assay type: in vivo, human
DETAILS: both sexes, human, plasma, oral; range across the 0.3 to 18 mg single dose range; read-out: mean plasma Cmax
QUANTITY KIND: Cmax

[[record]]
molecule = "CC1=CN2CCS(=O)(=O)N=C2C(c2ccc(OC3CCCCC3)cc2)=N1 [COMPOUND A]"
test_result = "3.63 to 126 ng/mL"

